Values compiled from ChEMBL document CHEMBL1201862.

Measured GI50, listed per entry for reference.
- Test system: COLO 205
- EXPERIMENTAL_PROTOCOL: NCI tumour cell line growth inhibition, 48 h
The source made the active and inactive calls. Cut-off read from the data, not from the text of the source: active = GI50 up to about 1.1 µM and inactive = higher.

Reference set, count: 8
MOLECULE	TARGET_OR_TEST_SYSTEM	VALUE_REPORTED
Cc1ncc([N+](=O)[O-])n1CCNS(=O)(=O)CCCn1ccnc1[N+](=O)[O-]	COLO 205	> 100 µM (inactive)
CC(=O)Nc1ccc(CNc2cc(=O)n(C)c(=O)[nH]2)cc1	COLO 205	> 100 µM (inactive)
CC(=O)[C@@]1(O)CC[C@H]2[C@@H]3C[C@H](C)C4=CC(=O)CC[C@]4(C)[C@H]3[C@@H](O)C[C@@]21C	COLO 205	> 100 µM (inactive)
CCc1n[nH]c(=O)n1/N=C/c1ccccc1O	COLO 205	> 100 µM (inactive)
CCN(/C=C1/C(=O)C(c2ccccc2)N(c2ccccc2)C1=O)CC (stereo not given)	COLO 205	> 10 µM (inactive)
COc1cccc2c1OC1c3ccccc3OCC1(O)C2 (stereo not given)	COLO 205	> 100 µM (inactive)
O=C1Nc2c(Cl)cc(Cl)cc2/C1=N/N=C/c1ccccc1O	COLO 205	16.4 µM (inactive)
Cc1occc1/C(S)=N\c1ccc(Cl)c(C(=O)OCC(F)(F)F)c1	COLO 205	22.4 µM (inactive)

[ask] // lookup GI50 for CCOC(=O)C1C2C1C1C(C(=O)OCC)C21 (stereo not given)
[reply] > 100 µM (inactive)

[ask] Query CC(C)CC(NC(=O)C(Cc1ccccc1)NC(=O)[C@H]1CC[C@H](NC(=O)C(Cc2ccc(OC(C)(C)C)cc2)NC(=O)OC(C)(C)C)C1)C(N)=O (stereo not given in full) next
[reply] 18.8 µM (inactive)

---

- System: Malme-3M
- EXPERIMENTAL_PROTOCOL: NCI tumour cell line growth inhibition, 48 h
The source made the active and inactive calls. No stated cut-off is given here; in the data, active = GI50 up to about 1.1 µM and inactive = higher.
Reply using exactly one outcome from active, inactive

> print(dat)
                                   compound  class.assignment
1  CC(C)N1CCCOC(c2ccc([N+](=O)[O-])cc2)O1 (stereo not given)          inactive
2        O=C(/C=C/c1ccc(O)cc1)c1cc(Cl)ccc1O          inactive
3                   COC(=O)Cc1cccc2c1CCC2=O          inactive

[ask] Name the outcome recorded for COc1cccc2c1[C@]1(O)C(O)CCCC21 (stereo not given in full) in the assay.
[reply] inactive

[ask] Query CSC(=NC1=NC(C(F)(F)F)(C(F)(F)F)N=C(c2ccccc2)O1)SC next
[reply] inactive

[ask] Query Cc1ccc(S(=O)(=O)CC2(Br)CCc3ccccc3C2=O)cc1 (stereo not given) next
[reply] inactive

[ask] Query O=C1NC(N2CCCCC2)=N/C1=C\c1cccs1 next
[reply] inactive

[ask] Query CC1=CC(=O)[C@@H](O)[C@]2(C)[C@H]3[C@@]4(O)OC[C@]35[C@H]([C@@H](C)[C@H]4O)[C@@H](O)C(=O)O[C@@H]5C[C@@H]12 next
[reply] active

[ask] Query O=C1N(Cl)C(=O)C(c2ccc(Cl)cc2)(c2ccc(Cl)cc2)N1Cl next
[reply] inactive

[ask] Query CNS(=O)(=O)NNS(=O)(=O)c1cccc([N+](=O)[O-])c1 next
[reply] inactive

---

- Test system: OVCAR-5
- EXPERIMENTAL_PROTOCOL: NCI tumour cell line growth inhibition, 48 h
Active and inactive are the calls of the source. Rule as the data show it: active = GI50 up to about 1.1 µM and inactive = higher.
REPORTED_ENDPOINT: GI50

Reference set, count: 4
> print(dat)
                                   molecule       value.reported
1  CCOC(=O)C(Cc1ccc(OC(=O)c2ccc(OC)cc2OC)cc1)NC(=O)C(F)(F)F (stereo unspecified)  > 100 µM (inactive)
2   COC(=O)[C@@H]1Cc2ccc(OC)c(c2)OCCC(=O)N1  > 100 µM (inactive)
3  CC1Cc2c(cc(N)nc2Br)NC1=O (stereo unspecified)  > 100 µM (inactive)
4  Cc1nc(Nc2ccccc2)sc1C(=O)CC(=O)C(=O)NC12CC3CC(CC(C3)C1)C2  > 100 µM (inactive)

[ask] // lookup GI50 for COC(=O)C(I(OS(=O)(=O)c1ccc(C)cc1)c1ccccc1)=P(c1ccccc1)(c1ccccc1)c1ccccc1
[reply] 28.6 µM (inactive)

[ask] Query CCOC(=O)CC(=O)Nc1cccc2sc3ncccc3c(=O)c12 next
[reply] 20.3 µM (inactive)

[ask] Query COc1cc2c(cc1OC)C(Cc1ccc(Oc3cc(CC4c5cc(OC)c(OC)cc5CCN4C)ccc3O)cc1)N(C)CC2 (stereo unspecified) next
[reply] > 100 µM (inactive)

[ask] Query C1CSC(Sc2nc(SC3=NCCS3)nc(SC3=NCCS3)n2)=N1 next
[reply] > 100 µM (inactive)

[ask] Query COc1ccc(CN2C(=O)C(=O)N(C)C2=O)c2ccccc12 next
[reply] > 10 µM (inactive)

[ask] Query CCOC(=O)/C=C/C(=O)O/C=C/[N+](=O)[O-] next
[reply] > 100 µM (inactive)

[ask] Query c1ccc2c(c1)Sc1ccccc1N2CCCN1c2ccccc2Sc2ccccc21 next
[reply] > 100 µM (inactive)

[ask] Query CCN(CC)c1nnc(CCCCCCCCc2nnc(N(CC)CC)o2)o1 next
[reply] > 100 µM (inactive)

[ask] Query CC(=O)Nc1oc(C)c(C)c1S(=O)(=O)c1ccc(Cl)cc1 next
[reply] > 100 µM (inactive)

[ask] Query CCOC(=O)C(Cc1ccc(OC(=O)c2ccc(OC)cc2)cc1)NC(=O)C(F)(F)F (stereo unspecified) next
[reply] > 100 µM (inactive)

[ask] Query COC(=O)/C=C/C(=O)Nc1cc(Cl)c(Cl)cc1CC(=O)N(C)[C@H]1CCCC[C@@H]1N1CCCC1 next
[reply] 15.8 µM (inactive)

[ask] Query N=C(N)NS(=O)(=O)c1ccc(NCc2cccc3c(=O)c4ccc(Cl)cc4oc23)cc1 next
[reply] > 10.1 µM (inactive)

[ask] Query Cc1ncc([N+](=O)[O-])n1CCNS(=O)(=O)CCCn1ccnc1[N+](=O)[O-] next
[reply] > 100 µM (inactive)

[ask] Query O=[N+]([O-])c1ccc(-c2nn3c(C45CC6CC(CC(C6)C4)C5)nnc3s2)c(Cl)c1 next
[reply] > 100 µM (inactive)

[ask] Query C/C(=C\CNc1ncnc2c1ncn2CCC(=O)OC(C)(C)C)CO next
[reply] > 100 µM (inactive)

[ask] Query CCOC(=O)NC(NC(C)CC)(C(F)(F)F)C(F)(F)F (stereo unspecified) next
[reply] > 100 µM (inactive)

[ask] Query CC[C@@]1(OC(=O)CCC(=O)O)C(=O)OCc2c1cc1n(c2=O)Cc2cc3ccccc3nc2-1 next
[reply] 0.363 µM (active)

---

Measured GI50, listed per entry for reference.
- Test system: HOP-62
- EXPERIMENTAL_PROTOCOL: NCI tumour cell line growth inhibition, 48 h
Active and inactive are the calls of the source. Rule as the data show it: active = GI50 up to about 1.1 µM and inactive = higher.

MOLECULE	TARGET_OR_TEST_SYSTEM	REPORTED_ENDPOINT	VALUE_REPORTED
Cc1cc(N(CCC#N)CCC#N)ccc1/C=C1N=C(/C=C\c2ccccc2)OC\1=O	HOP-62	GI50	> 100 µM (inactive)
O=C(O)CC(NC(=O)Nc1ccc([N+](=O)[O-])cc1)C(=O)Nc1ccc([N+](=O)[O-])cc1 (stereo not drawn)	HOP-62	GI50	> 100 µM (inactive)
CCOC(=O)NC(NC(C)CC)(C(F)(F)F)C(F)(F)F (stereo not drawn)	HOP-62	GI50	> 100 µM (inactive)

[ask] // lookup GI50 for Cn1c(=O)c2[nH]c(/N=N\n3ccc4ccccc43)nc2n(C)c1=O
[reply] > 100 µM (inactive)

[ask] Query Cc1ccc(O)c(-c2cc(-c3cccc(Br)c3)c(C#N)c(N)n2)c1 next
[reply] 34.6 µM (inactive)

[ask] Query COC1C(O)CC(OC2CC(OC3CC(O[C@@H]4C(=O)c5c(cc6cc(OC7CC(OC8CC(O)C(O)C(C)O8)C(O)C(C)O7)c(C)c(O)c6c5O)C[C@H]4[C@H](OC)C(=O)[C@@H](O)[C@@H](C)O)OC(C)C3O)OC(C)C2O)OC1C (stereo partly drawn) next
[reply] < 0.012 µM (active)

[ask] Query COc1ccc2c(c1)CCCN1CCc3cc(OC)c(OC)cc3C21 (stereo not drawn) next
[reply] > 100 µM (inactive)

[ask] Query O=C1N/C(=N/N=C/C(O)C(O)C(O)C(O)CO)N/C1=C\c1c[nH]c2ccccc12 (stereo not drawn) next
[reply] > 100 µM (inactive)

---

- System: KM12
- EXPERIMENTAL_PROTOCOL: NCI tumour cell line growth inhibition, 48 h
The source made the active and inactive calls. No stated cut-off is given here; in the data, active = GI50 up to about 1.1 µM and inactive = higher.
REPORTED_ENDPOINT: GI50

> print(dat)
                                   compound  reported.endpoint       value.reported
1  CCOC(=O)NC(=O)c1cn(CCCOC(=O)CCCCCCCCC(=O)OCCCn2cc(C(=O)NC(=O)OCC)c(=O)n(C)c2=O)c(=O)n(C)c1=O               GI50  > 100 µM (inactive)
2  Oc1ccc(/C=C/c2cc(O)cc3c2C(c2cc(O)cc(O)c2)C(c2ccc(O)c(O)c2)O3)cc1 (stereo not given)               GI50   25.6 µM (inactive)
3        O=C(/C=C/c1ccc(O)cc1)c1cc(Cl)ccc1O               GI50  > 100 µM (inactive)
4                              O=c1ccs[nH]1               GI50   26.7 µM (inactive)

Now look at this one.
[ask] // lookup GI50 for COc1ccc(/C=N/NC(=O)NCCNCCO)cc1
[reply] > 100 µM (inactive)
